All figures here come from ChEMBL document CHEMBL4020774.

experiment: Antiviral activity against Influenza A virus (A/California/07/09(H1N1)) pdm09 infected in MDCK cells pretreated for 1 hr followed by viral infection incubated for 24 hrs measured after 48 hrs by hemagglutination test; format: functional, cell-based, Influenza A virus (A/California/07/2009(H1N1))
Measured IC50 accompanies every entry in the list below.
API: value field is a number in µM; no unit string.

>  <compound>
CC(N)C12CC3CC(CC(C3)C1)C2 (stereo not given)

>  <units>
µM

>  <value>
41

$$$$
>  <compound>
Cc1cc(=O)oc2cc(OCC3=CC[C@@H]4C[C@H]3C4(C)C)ccc12

>  <units>
µM

>  <value>
10

$$$$
>  <compound>
CC1(C)[C@H]2CC=C(CCOc3ccc4c5c(c(=O)oc4c3)CCC5)[C@@H]1C2

>  <units>
µM

>  <value>
21

$$$$
>  <compound>
CC1(C)[C@H]2CC=C(COc3ccc4c5c(c(=O)oc4c3)CCC5)[C@@H]1C2

>  <units>
µM

>  <value>
36

$$$$

Indicate the recorded IC50 value for this compound: CC1(C)[C@H]2CC=C(CCOc3ccc4ccc(=O)oc4c3)[C@@H]1C2
0.5

====

Below, each of the molecules is paired with its reported selectivity ratio value.
assay: Selectivity index, ratio of CC50 for MDCK cells to IC50 for Influenza A virus (A/California/07/09(H1N1)) pdm09 infected in MDCK cells; type: toxicity, cell-based; details: dog; read-out: Ratio CC50/IC50
Please give only the number in your answer, with no unit.

>  <molecule>
CC1(C)[C@@H]2CC=C(COc3ccc4ccc(=O)oc4c3)[C@H]1C2

>  <selectivity ratio>
1

$$$$
>  <molecule>
CC(C)=CCC/C(C)=C/COc1ccc2c3c(c(=O)oc2c1)CCCC3

>  <selectivity ratio>
1

$$$$
>  <molecule>
Cc1cc(=O)oc2cc(OCC3=CC[C@@H]4C[C@H]3C4(C)C)ccc12

>  <selectivity ratio>
13

$$$$
>  <molecule>
CC1(C)[C@H]2CC=C(CCOc3ccc4ccc(=O)oc4c3)[C@@H]1C2

>  <selectivity ratio>
20

$$$$
>  <molecule>
CC1(C)[C@H]2CC=C(COc3ccc4c5c(c(=O)oc4c3)CCCC5)[C@@H]1C2

>  <selectivity ratio>
13

$$$$

Read off the recorded selectivity ratio for CC1(C)[C@@H]2CC=C(COc3ccc4c5c(c(=O)oc4c3)CCCC5)[C@H]1C2
3

Tell me its selectivity ratio given Cc1cc(=O)oc2cc(OCC3=CC[C@H]4C[C@@H]3C4(C)C)ccc12 as the entry.
9

====

test: Antiviral activity against Influenza A virus (A/California/07/09(H1N1)) pdm09 infected in MDCK cells pretreated for 1 hr followed by viral infection incubated for 24 hrs measured after 48 hrs by hemagglutination test; format: functional, cell-based, Influenza A virus (A/California/07/2009(H1N1))
# key: entry, value: pIC50
Convention used: pIC50 is expressed as -log10 of the molar concentration.

Known results for compounds:
>  <structure.notation>
Cc1cc(=O)oc2cc(OCC3=CC[C@H]4C[C@@H]3C4(C)C)ccc12

>  <pIC50>
5.40

$$$$
>  <structure.notation>
CC1(C)[C@@H]2CC=C(COc3ccc4c5c(c(=O)oc4c3)CCCC5)[C@H]1C2

>  <pIC50>
3.83

$$$$
>  <structure.notation>
CC1(C)[C@@H]2CC=C(COc3ccc4c5c(c(=O)oc4c3)CCC5)[C@H]1C2

>  <pIC50>
4.48

$$$$
>  <structure.notation>
CC(C)=CCC/C(C)=C/COc1ccc2ccc(=O)oc2c1

>  <pIC50>
5.15

$$$$
>  <structure.notation>
CC1(C)[C@H]2CC=C(CCOc3ccc4c5c(c(=O)oc4c3)CCCC5)[C@@H]1C2

>  <pIC50>
5.52

$$$$
>  <structure.notation>
COc1cccc(COc2ccc3c(C)cc(=O)oc3c2)c1

>  <pIC50>
2.99

$$$$

We now examine a further compound.
Identify pIC50 associated with the compound CC1(C)[C@H]2CC=C(COc3ccc4c5c(c(=O)oc4c3)CCCC5)[C@@H]1C2
4.19

====

assay: Cytotoxicity against MDCK cells after 48 hrs by MTT assay; format: cell-based, Canis lupus familiaris; conditions: dog
Field: label. Allowed values: 1.0 (CC50 at 48 h < 100 µM) or 0.0 (CC50 at 48 h >= 100 µM).

>  <compound>
CC(C)=CCC/C(C)=C/COc1ccc2ccc(=O)oc2c1

>  <assigned.class>
1.0

$$$$
>  <compound>
Cc1cc(=O)oc2cc(OCC3=CC[C@@H]4C[C@H]3C4(C)C)ccc12

>  <assigned.class>
0.0

$$$$
>  <compound>
CC(C)=CCC/C(C)=C/COc1ccc2c3c(c(=O)oc2c1)CCC3

>  <assigned.class>
0.0

$$$$
>  <compound>
CC1(C)[C@H]2CC=C(COc3ccc4c5c(c(=O)oc4c3)CCCC5)[C@@H]1C2

>  <assigned.class>
0.0

$$$$
>  <compound>
CC1(C)[C@H]2CC=C(CCOc3ccc4c5c(c(=O)oc4c3)CCCC5)[C@@H]1C2

>  <assigned.class>
1.0

$$$$
>  <compound>
CC1(C)[C@H]2CC=C(CCOc3ccc4c5c(c(=O)oc4c3)CCC5)[C@@H]1C2

>  <assigned.class>
0.0

$$$$

Given CC1(C)[C@@H]2CC=C(COc3ccc4c5c(c(=O)oc4c3)CCCC5)[C@H]1C2 , is recorded CC50 at 48 h strictly lower than 100 µM?
0.0

Would you kindly verify if CC50 at 48 h of CC(C)=CCC/C(C)=C/COc1ccc2c(C)cc(=O)oc2c1 is strictly less than 100 µM?
1.0

State whether 100 µM exceeds CC50 at 48 h recorded for COc1cccc(COc2ccc3ccc(=O)oc3c2)c1 .
0.0

Quick check: does CC(N)C12CC3CC(CC(C3)C1)C2 (centres undefined) [RIMANTADINE] have CC50 at 48 h under 100 µM?
0.0

Please check: CC50 at 48 h for Cc1cc(=O)oc2cc(OCC3=CC[C@H]4C[C@@H]3C4(C)C)ccc12 , strictly under 100 µM or not?
1.0

Identify whether the compound CC1(C)[C@H]2CC=C(COc3ccc4c5c(c(=O)oc4c3)CCC5)[C@@H]1C2 records CC50 at 48 h below 100 µM.
0.0

Quick check: does COc1cccc(COc2ccc3c4c(c(=O)oc3c2)CCCC4)c1 have CC50 at 48 h under 100 µM?
0.0

Say whether its CC50 at 48 h is strictly beneath 100 µM. Entry: CC1(C)[C@H]2CC=C(CCOc3ccc4ccc(=O)oc4c3)[C@@H]1C2
1.0

Given CC1(C)[C@@H]2CC=C(COc3ccc4ccc(=O)oc4c3)[C@H]1C2 , is recorded CC50 at 48 h strictly lower than 100 µM?
1.0

Please determine if CC1(C)[C@@H]2CC=C(COc3ccc4c5c(c(=O)oc4c3)CCC5)[C@H]1C2 is below 100 µM in terms of CC50 at 48 h.
0.0

Bench note: check whether CC1(C)[C@H]2CC=C(COc3ccc4ccc(=O)oc4c3)[C@@H]1C2 shows CC50 at 48 h below 100 µM
0.0

Consider COc1cccc(COc2ccc3c(C)cc(=O)oc3c2)c1 . Does its CC50 at 48 h lie strictly below 100 µM?
0.0

====

assay: Antiviral activity against Influenza A virus (A/California/07/09(H1N1)) pdm09 infected in MDCK cells pretreated for 1 hr followed by viral infection incubated for 24 hrs measured after 48 hrs by hemagglutination test; format: functional, cell-based, Influenza A virus (A/California/07/2009(H1N1))
pIC50: −log10 of the molar value.
measured.quantity: pIC50

>  <structure.notation>
CC(C)=CCC/C(C)=C/COc1ccc2c3c(c(=O)oc2c1)CCCC3

>  <measured.quantity>
pIC50

>  <value>
< 4.07

$$$$
>  <structure.notation>
COc1cccc(COc2ccc3ccc(=O)oc3c2)c1

>  <measured.quantity>
pIC50

>  <value>
< 2.93

$$$$
>  <structure.notation>
CC(C)=CCC/C(C)=C/COc1ccc2c3c(c(=O)oc2c1)CCC3

>  <measured.quantity>
pIC50

>  <value>
< 3.05

$$$$

Fill in reported pIC50 for this entry: CC(C)=CCC/C(C)=C/COc1ccc2c(C)cc(=O)oc2c1
< 5.00

Give the value of pIC50 reported for the following: CC1(C)[C@@H]2CC=C(COc3ccc4ccc(=O)oc4c3)[C@H]1C2
< 5.00

====

experiment: Selectivity index, ratio of CC50 for MDCK cells to IC50 for Influenza A virus (A/California/07/09(H1N1)) pdm09 infected in MDCK cells; assay type: toxicity, cell-based; settings: dog; read-out: Ratio CC50/IC50
measured.quantity: selectivity ratio

Return reported selectivity ratio. Input molecule: COc1cccc(COc2ccc3c(C)cc(=O)oc3c2)c1
> 1

Item CC1(C)[C@H]2CC=C(COc3ccc4ccc(=O)oc4c3)[C@@H]1C2 : provide selectivity ratio
< 3

Look up and report measured selectivity ratio for this entry: CC1(C)[C@@H]2CC=C(COc3ccc4c5c(c(=O)oc4c3)CCC5)[C@H]1C2
4

State, in one line, measured selectivity ratio of CC1(C)[C@H]2CC=C(CCOc3ccc4c5c(c(=O)oc4c3)CCC5)[C@@H]1C2
41

Consider the molecule CC(C)=CCC/C(C)=C/COc1ccc2c(C)cc(=O)oc2c1 and give its recorded selectivity ratio.
< 3

Report measured selectivity ratio; entry is CC1(C)[C@H]2CC=C(CCOc3ccc4c5c(c(=O)oc4c3)CCCC5)[C@@H]1C2
6

Return selectivity ratio (reported value) for this molecule: CC1(C)[C@H]2CC=C(COc3ccc4c5c(c(=O)oc4c3)CCC5)[C@@H]1C2
28

Respond only with selectivity ratio recorded for CC(C)=CCC/C(C)=C/COc1ccc2ccc(=O)oc2c1
1

Supply reported selectivity ratio belonging to this molecule: CC(N)C12CC3CC(CC(C3)C1)C2 (centres undefined)
9
